B1: PLD5 (parent)
chain: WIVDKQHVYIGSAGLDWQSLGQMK

Variants of: B1
Assay: protein stability index of a GFP-peptide fusion (GPS, HEK-293T) (PSI 1-6); higher = more stable;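 further: lentivirally expressed fusions sorted by FACS into six bins by GFP to DsRed ratio, PSI derived from sequencing read proportions per bin multiplied by bin number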
Conditions: c terminus: a fixed tail appended

# chainSequence, protein stability index
data = [
    ("WIVDKQHVYIPSAGLDWQSLGQMK", 2.12),
    ("WIVDKKHVYIGSAGLDWQSLGQMK", 1.66),
    ("WIVDKQHVYIGSAGLDWRSLGQMK", 1.47),
    ("WIVDKQHVYIGSAQLDWQSLGQMK", 1.64),
    ("WIVDKQHVYIGSAGLDWQSLGLMK", 3.9),
    ("WIVDYQHVYIGSAGLDWQSLGQMK", 1.61),
    ("WIVEKQHVYIGSAGLDWQSLGQMK", 1.39),
    ("WIVDKQHAYIGSAGLDWQSLGQMK", 1.66),
    ("WIVDKQHVYIGSAGLDWQDLGQMK", 1.9),
    ("WIVDKQHVYIGSAGLDWPSLGQMK", 1.85),
    ("WIVDKSHVYIGSAGLDWQSLGQMK", 1.37),
    ("WIVDEQHVYIGSAGLDWQSLGQMK", 2.42),
    ("WIVDKQHVYIGSAGLDWQSSGQMK", 1.85),
    ("WIVDKQHVTIGSAGLDWQSLGQMK", 2.1),
    ("WIVDKQHVYIGSAGLDWQLLGQMK", 3.25),
    ("WIVDKQHVYIGSAGLDWQSLCQMK", 1.91),
    ("WIVDKQHVYIGSAGLDWQSLGQTK", 2.06),
    ("WIVDKQSVYIGSAGLDWQSLGQMK", 2.26),
    ("WIVDKQHVYIGLAGLDWQSLGQMK", 2.45),
    ("WIVDKQHVYIGSAGLDWQSAGQMK", 1.65),
    ("WIVDKTHVYIGSAGLDWQSLGQMK", 1.84),
    ("WIVDKQHVYIGSAGLPWQSLGQMK", 1.79),
    ("WIVDKQHHYIGSAGLDWQSLGQMK", 1.54),
    ("WIVDKQHVYIGSAELDWQSLGQMK", 1.54),
    ("WIVDKQHVYIGHAGLDWQSLGQMK", 1.62),
    ("WIVDKQHVYIKSAGLDWQSLGQMK", 1.26),
    ("WIVDKQHVYIGSAGLDNQSLGQMK", 2.17),
    ("WIVDKQHVYIGSAGLDWQSLGCMK", 2.35),
    ("WIPDKQHVYIGSAGLDWQSLGQMK", 1.97),
    ("WIVDKQHVPIGSAGLDWQSLGQMK", 2.48),
    ("WIVDKQHVFIGSAGLDWQSLGQMK", 3.1),
    ("WIVDQQHVYIGSAGLDWQSLGQMK", 1.74),
    ("WIVDKQHVYIGSAGLWWQSLGQMK", 3.03),
    ("WFVDKQHVYIGSAGLDWQSLGQMK", 1.64),
    ("WIVDKQHVYIGSAGLDWQSGGQMK", 2.43),
    ("WIVDKQHVYIGSANLDWQSLGQMK", 2.15),
    ("WIVDKQHYYIGSAGLDWQSLGQMK", 1.25),
    ("WIVDKQHVYIGSAGLDWQSLYQMK", 1.72),
    ("WIVDKFHVYIGSAGLDWQSLGQMK", 2.05),
    ("WIVDKQHVYIGSAGLDWHSLGQMK", 1.96),
    ("WIVDKQHVYIGSAGQDWQSLGQMK", 1.47),
    ("WIVDKQHVYIGSAGLDWSSLGQMK", 2.16),
    ("WIVDKQHVYIGSAGLDWQSLEQMK", 1.25),
    ("WIVDKQHVYIGSAGLDWQSLMQMK", 1.89),
    ("WIVDKQHVYIGSAGLDWQSLGQNK", 1.9),
    ("WIVDKQHVYIGSAGLDWQVLGQMK", 1.69),
]
